- systemTested: human IL-1β (human, UniProt P01584 117-269)
- protocolText: cell-based or functional assay

# binder, unitsSymbol, ND50
rows = [
    ("ABT2-65-85 (other, VH dAb) VH: EVQLMESGGGLVQPGGSLRLSCVASGFTFEDYQMGWVRQAPGKGLEWVSSISAMGNRTYYADSVKGRFAISRDDSKNTLYLQMNSLRAKDTAVYYCAQNLVRLGRSRWMFDYWGQGTLVTVSS", "nM", 2),
    ("ABT2-65-35 (other) VH: EVQLLESGGGLVQPGGSLRLSCVASGFTFEDYQMGWVRQAPGKGLEWVSSISAMGNRTYYADSVKGRFTISRDDSKNTLYLQMNSLRAEDTAVYYCAQNLVRLRRSRWMFDYWGQGTLVTVSS", "nM", 4),
]
